Origin of values: ChEMBL document CHEMBL1151959

Experiment: Clearance in rat at 3 mg/kg, iv
Assay type: ADME, organism-based
Design: dose 3 mg/kg, route intravenous
Settings: in vivo
reported endpoint: clearance (mL/min/kg)
One number for each entry, in mL/min/kg.

query: Recorded clearance for O=C1c2cccc3c(NCCO)ccc(c23)C(=O)N1c1cccc(Br)c1 , please?
result: 12

----------
Assay: Inhibition of HCV2a.4 NS5B Cdelta21 RNA dependent RNA polymerase
Set-up: species or system Hepacivirus hominis, 2a.4
reported endpoint: pIC50
Numbers only, as −log10 of the molar value.

query: Recorded pIC50 for O=C1c2cccc3c(NCCO)ccc(c23)C(=O)N1c1cccc(Br)c1 , please?
result: 6.11
